# Tested on: PC-3 prostate
# ASSAY_DETAILS: NCI-60 one-dose screen, 48 h (100 = growth as untreated, 0 = no growth, -100 = all killed)
# ASSAY_CONTEXT: 10 µM unless noted
This is part of a sample that, as a whole, favours compounds with a hit. Of some 83,000 tested, about 20% had one in any assay. The source made the active and inactive calls. Rule for the calls: active = growth percent below 10; inactive = the rest.
RECORDED_ENDPOINT: growth

Field: example entries. Status: answers known.
STRUCTURE_NOTATION	growth
Oc1ccc(CSc2nnc(-c3ccc(Br)cc3)n2-c2ccccc2)c2cccnc12	29.5% (inactive)
O=C1c2c(c3c4ccc(Br)cc4oc3c3[nH]c4ccccc4c23)C(=O)N1CCO	51.6% (inactive)
CC[C@@](C)(NC(=O)C(C)(C)NC(=O)[C@@H](NC(=O)[C@@H]1CCCN1C(=O)C(C)(C)NC(=O)[C@H](CC(C)C)NC(=O)CNC(=O)C(C)(C)NC(=O)[C@@H](NC(=O)C(C)(C)NC(=O)[C@H](CCC(N)=O)NC(=O)[C@H](C)NC(=O)C(C)(C)NC(=O)[C@H](C)NC(=O)C(C)(C)NC(=O)[C@H](C)NC(=O)C(C)(C)NC(C)=O)C(C)C)C(C)C)C(=O)N[C@@H](CCC(N)=O)C(=O)N[C@@H](CCC(N)=O)C(=O)N[C@H](CO)CC1CCCCC1	15.5% [5 µM] (inactive)
COCCOc1ccc(-c2csc(NC(=O)CN3CCN(CCO)CC3)n2)cc1NS(=O)(=O)c1cccc2c(N(C)C)cccc12	76.1% (inactive)

Alright, here's another molecule for you.
## Input Bench note: what growth did N/C(=N\c1nc2c(Cl)cccc2s1)C(Cl)(Cl)Cl show?
## Output 65% (inactive)
